FYI, the data here is from PubChem BioAssay (NCI).

test system: SR leukemia; experiment: NCI-60 one-dose screen, 48 h (100 = growth as untreated, 0 = no growth, -100 = all killed); conditions: 10 µM
The panel holds about 83,000 compounds, 20% with a hit somewhere; the sample as a whole holds those more often. Where a SMILES comes first, the peptide text is derived from it. Bridges are numbered along the chain shown (N, C = ends). [ ]: non-standard residue; d: D form. The star is where a group is joined. ξ: configuration not given here. ξNMePhe(4-NMe2) = CNC(Cc1ccc(N(C)C)cc1)C(=O)O; Picolinoyl(3-OH) = O=C(c1ncccc1O)*; ξPip(4-oxo) = O=C1CCNC(C(=O)O)C1; Phg = N[CH](C(=O)O)c1ccccc1; Abu = CC[CH](N)C(=O)O
Reported growth is given for each of the following molecules.
Experimental readout: growth (%)

>  <Molecule>
COc1cc(CN)ccc1O

>  <Measured on>
SR leukemia

>  <Units text>
%

>  <Reported result>
89.5

$$$$
>  <Molecule>
Oc1ccc(N=Nc2ccc(Br)cc2)c(O)c1

>  <Measured on>
SR leukemia

>  <Units text>
%

>  <Reported result>
-8.8

$$$$
>  <Molecule>
CN(C)CCC(=O)c1ccc(O)cc1

>  <Measured on>
SR leukemia

>  <Units text>
%

>  <Reported result>
105

$$$$
>  <Molecule>
O=[N+]([O-])c1ccc(CO)cc1

>  <Measured on>
SR leukemia

>  <Units text>
%

>  <Reported result>
99.5

$$$$
>  <Molecule>
COC(=O)Nc1nc2ccc(C(=O)c3cccs3)cc2[nH]1

>  <Measured on>
SR leukemia

>  <Units text>
%

>  <Reported result>
-4.93

$$$$
>  <Molecule>
O=c1cc2oc3cc(O)c(O)cc3c(-c3ccccc3O)c-2cc1O

>  <Measured on>
SR leukemia

>  <Units text>
%

>  <Reported result>
82.7

$$$$
>  <Molecule>
C#CC(C(C)C)N(CCO)CCCC (centres undefined)

>  <Measured on>
SR leukemia

>  <Units text>
%

>  <Reported result>
101

$$$$
>  <Molecule>
CC(C)CCCC(=O)O

>  <Measured on>
SR leukemia

>  <Units text>
%

>  <Reported result>
89.4

$$$$
>  <Molecule>
CC(C)OC(C(=O)O)c1ccccc1 (centres undefined)

>  <Measured on>
SR leukemia

>  <Units text>
%

>  <Reported result>
125

$$$$
>  <Molecule>
C=CCNc1ccccc1

>  <Measured on>
SR leukemia

>  <Units text>
%

>  <Reported result>
96.9

$$$$
>  <Molecule>
O=[N+]([O-])c1ccc(-c2ncc(-c3ccc(Br)cc3)o2)cc1

>  <Measured on>
SR leukemia

>  <Units text>
%

>  <Reported result>
124

$$$$
>  <Molecule>
O=C(CN1CCNCC1)N1CCOCC1

>  <Measured on>
SR leukemia

>  <Units text>
%

>  <Reported result>
82.6

$$$$
>  <Molecule>
C=CCc1cc(C(C)=O)cc(OC)c1O

>  <Measured on>
SR leukemia

>  <Units text>
%

>  <Reported result>
113

$$$$
>  <Molecule>
NC(CSC(c1ccccc1)(c1ccccc1)c1ccccc1)C(=O)O (centres undefined)

>  <Measured on>
SR leukemia

>  <Units text>
%

>  <Reported result>
15.3

$$$$
>  <Molecule>
CCCC(C)OCC(=O)O (centres undefined)

>  <Measured on>
SR leukemia

>  <Units text>
%

>  <Reported result>
94.5

$$$$
>  <Molecule>
CCOC(=O)C(CCC(C)C)C(=O)OCC

>  <Measured on>
SR leukemia

>  <Units text>
%

>  <Reported result>
79.7

$$$$
>  <Molecule>
O=[N+]([O-])c1ccc(O)c(S(=O)(=O)O)c1

>  <Measured on>
SR leukemia

>  <Units text>
%

>  <Reported result>
98

$$$$
>  <Molecule>
CCC/C=C(\C)C(C)(C#N)C(=O)OCC (centres undefined)

>  <Measured on>
SR leukemia

>  <Units text>
%

>  <Reported result>
100

$$$$
>  <Molecule>
CC(=Nc1ccccc1)C1=C(O)C(Cc2cccc(F)c2)NC1=O (centres undefined)

>  <Measured on>
SR leukemia

>  <Units text>
%

>  <Reported result>
0.385

$$$$
>  <Molecule>
C[C@]12CC[C@@H]3c4ccc(OCC(=O)O)cc4CC[C@H]3[C@@H]1CCC2=O

>  <Measured on>
SR leukemia

>  <Units text>
%

>  <Reported result>
88.5

$$$$
>  <Molecule>
CCC1NC(=O)C(NC(=O)c2ncccc2O)C(C)OC(=O)C(c2ccccc2)NC(=O)C2CC(=O)CCN2C(=O)C(Cc2ccc(N(C)C)cc2)N(C)C(=O)C2CCCN2C1=O (centres undefined) (tested in a mixture with another compound) ({Picolinoyl(3-OH)}-T[Abu]P[ξNMePhe(4-NMe2)][ξPip(4-oxo)][Phg]; ester 1-C; configuration not given here)

>  <Measured on>
SR leukemia

>  <Units text>
%

>  <Reported result>
52.1

$$$$
>  <Molecule>
CCCCOC(=O)c1ccc(C(C)C)cc1

>  <Measured on>
SR leukemia

>  <Units text>
%

>  <Reported result>
102

$$$$
>  <Molecule>
C[C@@H](c1ccccc1)[C@@H](C(=O)O)c1ccccc1

>  <Measured on>
SR leukemia

>  <Units text>
%

>  <Reported result>
105

$$$$
>  <Molecule>
COC(=O)/C=C/C(=O)NC(N)=O

>  <Measured on>
SR leukemia

>  <Units text>
%

>  <Reported result>
95.9

$$$$
